Just for reference, ChEMBL document CHEMBL1909046 is where these values come from.

experiment: DRUGMATRIX: Calcium Channel Type L, Phenylalkylamine radioligand binding (ligand: [3H] (-)-Desmethoxyverapamil (D-888)); assay type: cell membranes, Rattus norvegicus, Wistar, Brain, Membrane; conditions: Not Active = under 50% inhibition at 10 µM; read-out: IC50
The entries below are paired with their reported pIC50.
Worth noting: pIC50 values are minus log10 of concentrations stated in mol/L.

Worked cases, pIC50 given:
CC(C)(C)c1ccc(C(O)CCCN2CCC(C(O)(c3ccccc3)c3ccccc3)CC2)cc1 (centres undefined)	6.20
CC(C)CC(N(C)C)C1(c2ccc(Cl)cc2)CCC1 (centres undefined)	5.57
O=C(c1ccc(OCCN2CCCCC2)cc1)c1c(-c2ccc(O)cc2)sc2cc(O)ccc12	6.83

Now let's try a different one.
Req: Tell me the measured pIC50 of "CN(C)c1ccc(C(=C2C=CC(=[N+](C)C)C=C2)c2ccc(N(C)C)cc2)cc1.[Cl-]" , please.
Resp: 5.46

###

// reported pKi per item
molecular target: Sodium-dependent noradrenaline transporter (Homo sapiens, UniProt P23975); test: DRUGMATRIX: Norepinephrine Transporter radioligand binding (ligand: [125I] RTI-55); format: cell membranes, MDCK, Membrane; settings: Not Active = under 50% inhibition at 10 µM; read-out: Ki
Sequence (P23975 whole entry): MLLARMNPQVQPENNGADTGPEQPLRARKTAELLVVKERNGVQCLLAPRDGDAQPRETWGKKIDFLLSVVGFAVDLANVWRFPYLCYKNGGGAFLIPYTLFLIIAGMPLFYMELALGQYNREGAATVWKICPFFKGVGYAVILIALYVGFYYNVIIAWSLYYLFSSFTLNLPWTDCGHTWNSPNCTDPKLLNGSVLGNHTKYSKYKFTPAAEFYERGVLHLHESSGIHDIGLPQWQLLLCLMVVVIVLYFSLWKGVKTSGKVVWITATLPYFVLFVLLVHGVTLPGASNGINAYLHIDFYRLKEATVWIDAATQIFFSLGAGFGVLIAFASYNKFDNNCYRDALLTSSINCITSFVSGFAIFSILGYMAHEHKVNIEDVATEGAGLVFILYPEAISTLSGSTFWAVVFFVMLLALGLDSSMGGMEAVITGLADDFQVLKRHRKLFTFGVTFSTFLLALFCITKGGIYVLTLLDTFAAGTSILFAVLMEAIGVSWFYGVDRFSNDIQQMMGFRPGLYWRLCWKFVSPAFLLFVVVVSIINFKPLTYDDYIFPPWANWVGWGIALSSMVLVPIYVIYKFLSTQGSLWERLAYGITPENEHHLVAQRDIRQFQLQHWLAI
Please report pKi as the negative decimal logarithm of the molar concentration, giving only the number.

Req: Entry under review: CC(=O)N1CCN(c2ccc(OCC3COC(Cn4ccnc4)(c4ccc(Cl)cc4Cl)O3)cc2)CC1 (configuration not stated) . Reported pKi?
Resp: 4.62

Req: Request: "Cc1onc(-c2ccccc2)c1-c1ccc(S(N)(=O)=O)cc1"
Resp: 5.54

Req: // query: "N=C(Nc1ccccc1)Nc1ccccc1"
Resp: 5.94

Req: Same read-out for [Cl-].[Cl-].[Zn+2] [ZINC CHLORIDE] ?
Resp: 5.16

Req: Another compound: C[C@]12CC[C@@H]3c4ccc(OC(=O)c5ccccc5)cc4CC[C@H]3[C@@H]1CC[C@@H]2O [ESTRADIOL BENZOATE]
Resp: 4.77

Req: Next compound up: "Oc1ccc(OCc2ccccc2)cc1"
Resp: 5.41

Req: Quick one: "C#C[C@]1(O)CC[C@H]2[C@@H]3CCc4cc(OC)ccc4[C@H]3CC[C@@]21C"
Resp: 5.86

###

target: Beta-1 adrenergic receptor (Homo sapiens); experiment: DRUGMATRIX: Adrenergic beta1 radioligand binding (ligand: [125I] Cyanopindolol); format: cell membranes, CHO-K1, Membrane; settings: cho-k1; Not Active = under 50% inhibition at 10 µM
Sequence (P08588 whole entry): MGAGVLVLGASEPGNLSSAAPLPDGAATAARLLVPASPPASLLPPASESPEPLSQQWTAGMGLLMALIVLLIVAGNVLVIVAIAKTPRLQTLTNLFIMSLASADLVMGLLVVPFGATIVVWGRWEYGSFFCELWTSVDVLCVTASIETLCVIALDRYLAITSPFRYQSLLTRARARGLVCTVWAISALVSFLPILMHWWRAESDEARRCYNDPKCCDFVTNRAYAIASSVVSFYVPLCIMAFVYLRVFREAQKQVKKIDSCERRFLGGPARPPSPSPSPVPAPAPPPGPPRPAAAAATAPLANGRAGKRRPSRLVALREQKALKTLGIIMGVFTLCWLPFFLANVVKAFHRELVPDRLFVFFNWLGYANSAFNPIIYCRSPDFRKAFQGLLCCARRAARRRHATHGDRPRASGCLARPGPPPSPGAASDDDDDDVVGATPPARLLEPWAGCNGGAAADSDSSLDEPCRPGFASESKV
OBSERVED_PROPERTY: IC50

The examples below pair each entry with its known result.
CC(C)(C)c1ccc(C(O)CCCN2CCC(C(O)(c3ccccc3)c3ccccc3)CC2)cc1 (stereo not given) [TERFENADINE]	Not Active
CC(C)Cc1ccc(C(C)C(=O)O)cc1 (stereo not given) [IBUPROFEN]	Not Active
CCCCOc1ccc(OCCCN2CCOCC2)cc1 [PRAMOXINE]	Not Active
ClC(Cl)Cl [CHLOROFORM]	Not Active

Next, consider the following compound.
Req: Any idea what its IC50 is? The compound is CCOC(=O)C1=C(C)NC(C)=C(C(=O)OC)C1c1cccc([N+](=O)[O-])c1 (stereo not given) [NITRENDIPINE]
Resp: Not Active
